- tested_target: Peroxisome proliferator-activated receptor gamma/Nuclear receptor coactivator 1 (Homo sapiens, UniProt P37231);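 note: agonist potency as compounds enhance coactivator SRC-1 recruitment to PPARgamma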
- Sequence (P37231 whole entry): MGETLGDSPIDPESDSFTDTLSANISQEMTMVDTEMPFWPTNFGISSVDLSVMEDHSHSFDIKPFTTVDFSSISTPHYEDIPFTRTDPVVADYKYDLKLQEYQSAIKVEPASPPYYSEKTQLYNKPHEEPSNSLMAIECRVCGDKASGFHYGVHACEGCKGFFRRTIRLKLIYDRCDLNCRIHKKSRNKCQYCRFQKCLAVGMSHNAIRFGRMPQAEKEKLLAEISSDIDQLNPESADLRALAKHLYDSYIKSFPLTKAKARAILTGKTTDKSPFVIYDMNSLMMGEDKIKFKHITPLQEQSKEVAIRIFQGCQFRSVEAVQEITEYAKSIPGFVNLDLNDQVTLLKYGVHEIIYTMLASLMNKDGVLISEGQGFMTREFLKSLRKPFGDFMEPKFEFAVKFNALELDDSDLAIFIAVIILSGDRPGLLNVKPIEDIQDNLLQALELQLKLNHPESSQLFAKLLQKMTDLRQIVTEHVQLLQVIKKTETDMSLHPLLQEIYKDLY
- Sequence (Q15788 whole entry, further chain): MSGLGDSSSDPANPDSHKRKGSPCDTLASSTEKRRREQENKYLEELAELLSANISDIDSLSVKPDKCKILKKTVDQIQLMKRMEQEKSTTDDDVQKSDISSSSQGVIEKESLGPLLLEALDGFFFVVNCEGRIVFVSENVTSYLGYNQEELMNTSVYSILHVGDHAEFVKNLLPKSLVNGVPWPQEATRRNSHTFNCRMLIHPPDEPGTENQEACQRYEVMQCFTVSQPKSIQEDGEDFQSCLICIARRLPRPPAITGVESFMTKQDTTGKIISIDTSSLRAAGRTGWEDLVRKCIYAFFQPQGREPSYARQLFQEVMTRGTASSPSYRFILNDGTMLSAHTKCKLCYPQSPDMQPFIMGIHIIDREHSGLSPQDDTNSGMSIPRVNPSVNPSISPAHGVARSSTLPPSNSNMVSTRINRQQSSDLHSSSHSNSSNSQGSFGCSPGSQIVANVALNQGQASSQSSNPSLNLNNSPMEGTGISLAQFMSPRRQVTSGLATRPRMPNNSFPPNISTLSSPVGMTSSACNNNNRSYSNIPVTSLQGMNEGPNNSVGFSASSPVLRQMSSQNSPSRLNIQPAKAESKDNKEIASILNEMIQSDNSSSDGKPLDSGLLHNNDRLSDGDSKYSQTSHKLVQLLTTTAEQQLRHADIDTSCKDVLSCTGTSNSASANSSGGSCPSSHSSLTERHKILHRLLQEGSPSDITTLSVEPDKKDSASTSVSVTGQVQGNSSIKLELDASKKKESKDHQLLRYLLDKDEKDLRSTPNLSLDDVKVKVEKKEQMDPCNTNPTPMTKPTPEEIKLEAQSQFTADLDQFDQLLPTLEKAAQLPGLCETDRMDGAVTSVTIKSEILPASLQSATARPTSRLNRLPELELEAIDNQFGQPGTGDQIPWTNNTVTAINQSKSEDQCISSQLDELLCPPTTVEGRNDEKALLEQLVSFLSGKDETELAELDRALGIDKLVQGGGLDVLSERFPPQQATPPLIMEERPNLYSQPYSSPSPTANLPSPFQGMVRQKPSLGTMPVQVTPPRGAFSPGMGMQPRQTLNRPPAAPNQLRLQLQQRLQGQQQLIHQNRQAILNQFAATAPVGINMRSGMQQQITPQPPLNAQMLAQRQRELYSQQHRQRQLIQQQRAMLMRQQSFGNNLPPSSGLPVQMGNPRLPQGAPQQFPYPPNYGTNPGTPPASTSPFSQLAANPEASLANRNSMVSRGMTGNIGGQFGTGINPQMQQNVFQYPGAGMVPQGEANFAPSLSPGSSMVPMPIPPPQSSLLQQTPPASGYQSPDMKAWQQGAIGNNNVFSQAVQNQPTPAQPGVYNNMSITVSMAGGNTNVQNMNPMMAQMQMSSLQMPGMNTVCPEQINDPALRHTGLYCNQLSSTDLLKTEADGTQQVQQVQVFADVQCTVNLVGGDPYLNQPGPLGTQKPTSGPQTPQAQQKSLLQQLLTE
- Assay type: functional
recorded_endpoint: EC50

> print(dat)
                                   compound     experimental.result
1  c1csc(Cc2nn3c(-c4n[nH]c5c4CCC5)nnc3s2)c1  > 79.4 µM (not active)
2  O=C(Nc1nc(-c2ccc(S(=O)(=O)N3CCCCCC3)cc2)cs1)c1cccs1    16.5 µM (not active)
3  O=C(CCC1CCCN(C(=O)C2=CCCCC2)C1)N1CCN(c2ccccn2)CC1 (stereo unspecified)  > 79.4 µM (not active)
4  CCc1nnc(NS(=O)(=O)c2ccc(NC(=S)NC(=O)/C=C/c3cccs3)cc2)s1  > 79.4 µM (not active)
5         Cc1ccc(NC(=O)CN(C)C(=S)NC2CC2)cc1  > 79.4 µM (not active)
6  O=C(CSc1ncnc2c1nnn2-c1ccc(F)cc1)NCc1ccco1  > 79.4 µM (not active)

---

- tested_target: Nonstructural protein 1 (Influenza A virus, UniProt Q194T2)
- Sequence (Q194T2 whole entry): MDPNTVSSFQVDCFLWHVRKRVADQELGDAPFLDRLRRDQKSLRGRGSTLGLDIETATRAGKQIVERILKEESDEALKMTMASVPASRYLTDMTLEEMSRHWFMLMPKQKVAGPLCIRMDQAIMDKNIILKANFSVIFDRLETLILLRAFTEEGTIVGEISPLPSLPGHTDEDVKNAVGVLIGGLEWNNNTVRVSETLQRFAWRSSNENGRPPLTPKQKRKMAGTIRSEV
- Format: functional, Influenza A virus (A/California/07/2009(H1N1))
Active and inactive are the calls of the source.
Readings of IC50 for the listed molecules
recorded_endpoint: IC50

> print(dat)
                                   molecule  recorded.endpoint  experimental.result
1  Cc1[nH]c(=O)[nH]c1C(=O)CCCCC(=O)OCC(=O)Nc1ccccn1               IC50     1.98 µM (active)
2                      O=Cc1ccc(O)c2ncccc12               IC50     1.71 µM (active)
3  CCOC(=O)c1cc(-c2ccc(/C=C3/C(=O)N(c4ccc(C(=O)O)cc4)N=C3C)o2)ccc1Cl               IC50     66.1 µM (active)
4  COc1ccc(OC)c(NC2c3ccccc3C(=O)N2Cc2ccc3c(c2)OCO3)c1 (centres undefined)               IC50     57.5 µM (active)

---

Calls of active or inactive are those of the source.
IC50 data for Estrogen receptor beta (Homo sapiens) follow.
recorded_endpoint: IC50

> print(dat)
                                   molecule                          tested.target   experimental.result
1  CC1CCCC(C)N1C(=O)Nc1cccc(Cl)c1 (stereo not given)  Estrogen receptor beta (Homo sapiens)  > 50 µM (not active)
2  COc1ccc(OC)c(N2C(=O)[C@@H]3C(c4ccccc4Cl)=NO[C@@H]3C2=O)c1  Estrogen receptor beta (Homo sapiens)      2.49 µM (active)
3  Cc1ccc(-n2nc(C)c(/C=N/n3c(C)nc4ccccc4c3=O)c2O)cc1  Estrogen receptor beta (Homo sapiens)  > 50 µM (not active)
4                 COc1ccc(-c2cn3ccsc3n2)cc1  Estrogen receptor beta (Homo sapiens)  > 50 µM (not active)
5  c1csc(Cc2nn3c(-c4n[nH]c5c4CCC5)nnc3s2)c1  Estrogen receptor beta (Homo sapiens)  > 50 µM (not active)

---

- System: BJ
- assay_notes: cells
- Format: functional, cell-based
- conditions_used: Homo sapiens
Calls of active or inactive are those of the source.
recorded_endpoint: EC50

> print(dat)
                                   molecule  experimental.result
1                      O=Cc1ccc(O)c2ncccc12     33.7 µM (active)
2          CCOC(=O)c1ccc(NC(=O)Nc2ccon2)cc1     20.1 µM (active)
3  Cc1cccc(NC(=O)/C=C/c2ccc([N+](=O)[O-])s2)c1     15.7 µM (active)
4  COC(=O)c1c(NC(=O)COc2ccc(Cl)cc2)sc2c1CC(C)(C)NC2(C)C     11.7 µM (active)

---

- tested_target: Galanin receptor type 3 (Homo sapiens, UniProt O60755)
- Sequence (O60755 whole entry): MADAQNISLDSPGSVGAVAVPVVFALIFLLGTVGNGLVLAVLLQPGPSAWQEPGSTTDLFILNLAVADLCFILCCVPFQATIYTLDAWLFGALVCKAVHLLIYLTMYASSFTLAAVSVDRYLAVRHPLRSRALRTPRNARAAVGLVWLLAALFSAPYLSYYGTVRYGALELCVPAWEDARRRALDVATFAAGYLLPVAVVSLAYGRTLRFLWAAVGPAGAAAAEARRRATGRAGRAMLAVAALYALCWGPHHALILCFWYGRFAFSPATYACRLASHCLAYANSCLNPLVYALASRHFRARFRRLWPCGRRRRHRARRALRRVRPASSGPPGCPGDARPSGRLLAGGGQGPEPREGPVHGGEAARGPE
- assay_notes: Fluorescence-based cell-based primary high throughput dose response assay to identify antagonists of the Galanin Receptor 3 (GalR3).
- Format: functional
The source made the active and inactive calls.
Classes used: class 1 (active), class 0 (inactive)

> print(dat)
                                   molecule    group
1  COc1c(/C=C2\SC(Nc3ccccc3Cl)=NC2=O)cccc1[N+](=O)[O-]  class 1
2  COc1ccc(N2C(C)=CC(=Cc3sc4ccccc4[n+]3C)C=C2C)cc1  class 1
3  COc1ccc(C2=CC(c3ccc4c(c3)OCO4)c3c(c4ccccc4oc3=O)O2)cc1OC (centres undefined)  class 1
4            O=C(NCCCl)NNc1c(Cl)cc(Cl)cc1Cl  class 0

---

- tested_target: Heat shock factor protein 1 (Mus musculus)
- Sequence (P38532 whole entry): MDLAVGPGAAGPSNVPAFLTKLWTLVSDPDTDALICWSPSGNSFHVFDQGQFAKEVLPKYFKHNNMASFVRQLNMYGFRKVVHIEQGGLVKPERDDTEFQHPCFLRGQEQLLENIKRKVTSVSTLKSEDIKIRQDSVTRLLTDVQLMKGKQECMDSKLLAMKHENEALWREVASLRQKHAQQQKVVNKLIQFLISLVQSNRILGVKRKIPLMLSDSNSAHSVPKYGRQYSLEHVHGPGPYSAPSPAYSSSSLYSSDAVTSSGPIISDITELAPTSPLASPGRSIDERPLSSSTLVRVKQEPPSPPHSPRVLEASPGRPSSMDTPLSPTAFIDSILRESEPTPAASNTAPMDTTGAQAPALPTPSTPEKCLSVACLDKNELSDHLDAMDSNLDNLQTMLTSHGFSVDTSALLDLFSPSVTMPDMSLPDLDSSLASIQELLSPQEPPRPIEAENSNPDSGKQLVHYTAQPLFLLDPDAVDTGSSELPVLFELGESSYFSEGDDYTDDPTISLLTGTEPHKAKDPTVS
- assay_notes: HSF1 potentiators in luciferase reporter cells, confirmation, cell-based, NIH3T3, luminescence, dose retest (AID 435004);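 note: stress induced by proteasome inhibitor MG132 added 30 min after compound; luciferase reporter driven by HSF1 response element in NIH3T3 cells; actives raise luminescence as potentiators of the MG132 stress response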
- Type: functional
Calls of active or inactive are those of the source.
Classes used: active, inactive

> print(dat)
                                   molecule     group
1  O=C(Nc1ccccc1F)C(=Cc1sc(N2CCOCC2)nc1-c1ccccc1)C(=O)Nc1ccccc1F  inactive
2              Cc1cc(Sc2nnc(N)s2)c2ccccc2n1    active
3  CC(=O)C1=C(C)NC2(O)c3ccccc3C(=O)C12O (stereo not drawn)  inactive

---

Readings of IC50 for the listed molecules
- Test system: H9c2;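 note: cell death induced by hydrogen peroxide oxidative stress; compound pretreatment for 60 min then peroxide exposure for 2 h; potency is for protecting the cells against peroxide damage rather than for killing them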;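 note: confirmatory concentration-response retest of ultra-high-throughput screening hits for modulation of myocardial damage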
- assay_notes: cells
- Format: functional, cell-based
- conditions_used: Rattus norvegicus, H9c2, Myocardium
The source made the active and inactive calls.
recorded_endpoint: IC50

> print(dat)
                                   molecule  experimental.result
1   O=C(Nc1ccc2c(c1)nc(O)c1ccccc12)C(F)(F)F   > 79 µM (inactive)
2  O=C(CN1CCN(c2ccccn2)CC1)Nc1ccc([N+](=O)[O-])cc1C(=O)Nc1ccccc1F   > 79 µM (inactive)
3  COc1ccc(-c2cc(C(F)(F)F)n3nc(C(=O)N4CCN(C(=O)c5ccco5)CC4)cc3n2)cc1       13 µM (active)
4  COc1ccc(OCC(O)Cn2c(Nc3cccc(C)c3)nc3c2c(=O)n(C)c(=O)n3C)cc1 (centres undefined)     10.1 µM (active)

---

AC50 data for Cytochrome P450 3A4 (Homo sapiens, UniProt P08684) follow.
recorded_endpoint: AC50

> print(dat)
                                    compound  recorded.endpoint      experimental.result
 1  O=C(CNS(=O)(=O)c1ccc(Br)s1)N1CCC2(CC1)OCCO2               AC50   25.1 µM (inconclusive)
 2  O=C(NC(=S)Nc1ccc(C(=O)N2CCOCC2)cc1)c1ccc([N+](=O)[O-])cc1               AC50   1.41 µM (inconclusive)
 3  CC(C)c1cccc2nc3c(c(C(C)(C)C)c12)Cn1c-3cccc1=O               AC50   5.01 µM (inconclusive)
 4        CCOC(=O)c1cnc(-n2nc(C)cc2C)nc1NCCO               AC50   25.1 µM (inconclusive)
 5  O=c1c(-c2cccs2)nc2cnc(Nc3ccccc3)nc2n1C[C@H]1CCCO1               AC50     10 µM (inconclusive)
 6  COC(=O)c1[nH]c2cc(OC)ccc2c1NC(=O)c1nonc1C               AC50   7.08 µM (inconclusive)
 7  CCOc1ccc(C(=O)Nc2cnn(Cc3ccc(Cl)c(Cl)c3)c2)cc1               AC50   22.4 µM (inconclusive)
 8  CS(=O)(=O)c1nc(-c2ccccc2)cc(-c2ccccc2)c1C#N               AC50   22.4 µM (inconclusive)
 9  CCOC(=O)C1CCCN(C(=O)c2sc3nc(-c4ccc(OC)cc4)cn3c2C)C1 (centres undefined)               AC50   14.1 µM (inconclusive)
10               Cc1cnnn1-c1ccc(C(=O)CCl)cc1               AC50   25.1 µM (inconclusive)
11  CC(C)(C)NC(=O)C(c1ccccn1)N(C(=O)C1CSC(=O)C1)c1ccc(F)cc1 (centres undefined)               AC50  0.794 µM (inconclusive)
12     COCC(=O)N/N=C/c1ccc(Sc2nc3ccccc3s2)o1               AC50   22.4 µM (inconclusive)
13   COCCn1c(=O)c(-c2cc(F)cc(F)c2)nc2cncnc21               AC50   15.8 µM (inconclusive)
14   O=C(c1ccco1)N1CCC2(CCCN(c3ccccc3)C2)CC1               AC50   15.8 µM (inconclusive)
15  CCCNC(=O)OC[C@@H]1O[C@H](CCON=C(C)C)C=C[C@@H]1Oc1ccc(OC)cc1               AC50   3.98 µM (inconclusive)
16         O=C(CCNS(=O)(=O)c1cccs1)N1CCCCCC1               AC50     20 µM (inconclusive)
17  O=C(c1cccc(C(F)(F)F)c1)N1CCC(O)(CS(=O)(=O)Cc2ccccc2)CC1               AC50   3.16 µM (inconclusive)
18  Cc1cc(C(C)(C)C)c(OCCCN2CCOCC2)c(C(C)(C)C)c1               AC50   3.16 µM (inconclusive)
19  O=C(NCCCN1CCOCC1)C1COc2ccccc2O1 (centres undefined)               AC50   14.1 µM (inconclusive)

Source listed as ChEMBL document CHEMBL1201862.
